System: α1,3-L-fucosyltransferase of the soluble fraction of human ovarian tumor
Test: Assay of α1,3-fucosyltransferase with synthetic acceptors, partially purified enzyme of ovarian tumor soluble fraction
Assay type: biochemical
Conditions: 2'-methyl LacNAc = 100
Method: An incubation mixture contained 50 mM HEPES-NaOH, pH 7.5, 5 mM MnC12, 7 mM ATP, 3 mM NaN3, the acceptor 0.3 mM (for serum enzyme) or 3.0 mM (for tumor enzyme), 0.125 μCi of GDP-[U-^14 C] […] The Dowex column was then eluted successively with 3 ml each of 0.1M and 0.2M NaCl; these eluates which contained the [^14 C] fucosylated sulfated acceptors, were counted for radioactivity as before. […]
readoutName: Relative Percent (%)

CC(=O)N[C@H]1[C@H](OCc2ccccc2)O[C@H](CO)[C@@H](O[C@@H]2O[C@H](CO)[C@H](O)[C@H](O)[C@H]2O)[C@@H]1O [LacNAcβ-O--Bn]
111.6

a: CC(=O)N[C@H]1[C@H](OCc2ccccc2)O[C@H](CO)[C@@H](O[C@@H]2O[C@H](CO)[C@H](O)[C@H](OS(=O)(=O)O)[C@H]2O)[C@@H]1O [3'-Sulfo LacNAcβ-O--Bn]
b: CC(=O)N[C@H]1[C@H](OCc2ccccc2)O[C@H](CO)[C@@H](O)[C@@H]1O[C@@H]1O[C@H](CO)[C@H](O)[C@H](OS(=O)(=O)O)[C@H]1O [3-SulfoGa1β1,3G1cNAcβ-O--Bn]
QUERY: Larger number for Relative Percent: a , or b ? Select an item and report its label.
RESULT: b
(b: 415.4%, a: 183.8%)

a: CC(=O)N[C@H]1C(O)O[C@H](CO)[C@@H](O[C@@H]2O[C@H](CO)[C@H](O)[C@H](O)[C@H]2O)[C@@H]1O (some centres unmarked) [LacNAc]
b: CC(=O)N[C@H]1[C@H](OCc2ccccc2)O[C@H](CO)[C@@H](O[C@@H]2O[C@H](CO)[C@H](O)[C@H](O)[C@H]2O[C@@H]2O[C@@H](C)[C@@H](O)[C@@H](O)[C@@H]2O)[C@@H]1O [2'-Fucosyl LacNAcβ-O--Bn]
QUERY: Which item exceeds the other in Relative Percent, a or b ? Refer to your chosen item by its label in the answer.
RESULT: b

A: CC(=O)N[C@H]1[C@@H](Oc2ccccc2[N+](=O)[O-])O[C@H](CO[C@@H]2O[C@H](CO)[C@@H](O)[C@H](O)[C@H]2NC(C)=O)[C@H](O)[C@@H]1O [G1cNAcβ1,6Ga1NAcα-O--ONp]
B: CC(=O)N[C@H]1C(O)O[C@H](CO)[C@@H](O[C@@H]2O[C@H](CO)[C@H](O)[C@H](O)[C@H]2O)[C@@H]1O[C@@H]1O[C@@H](C)[C@@H](O)[C@@H](O)[C@@H]1O (some centres unmarked) [3-Fucosyl LacNAc]
C: CC(=O)N[C@H]1C(O)O[C@H](COS(=O)(=O)O)[C@@H](O[C@@H]2O[C@H](CO)[C@H](O)[C@H](O)[C@H]2O)[C@@H]1O (some centres unmarked) [6-Sulfo LacNAc]
D: CC(=O)N[C@H]1C(O)O[C@H](CO)[C@@H](O[C@@H]2O[C@H](CO)[C@H](O)[C@H](OS(=O)(=O)O)[C@H]2O)[C@@H]1O (some centres unmarked) [3'-Sulfo-LacNAc]
QUERY: Arrange these 4 compounds in increasing order of Relative Percent. Answer format: list of labels, ordered as asked.
RESULT: A, B, C, D
(A: 0%, B: 1.9%, C: 272.6%, D: 447.1%)
